Test system: KM20L2 colon
Test: NCI tumour cell line growth inhibition, 48 h
Recorded measurements of TGI, one per entry

1. CP(=O)(CCSc1ccccc1)c1ccccc1 (stereo not drawn) : > 100 µM
2. COc1ccc(OC)c2c1C(=O)C(Cl)=C(Cl)C2=O : 22.3 µM
3. COc1cc(C(C)c2cc3c(cc2OCCOCCOc2cc4c(cc2C(C)c2cc(OC)c(OC)c(OC)c2)OCO4)OCO3)cc(OC)c1OC (stereo not drawn) : > 100 µM
4. CCN(CC)CCNC(=O)c1ccccc1Nc1c(Cl)cccc1Cl : 7.27 µM
5. COC(=O)/C=C\C1C(C(=O)OC)C2(C(=O)OC)CCC1(C(=O)OC)N2 (stereo not drawn) : > 61.8 µM

As a next step, examine the compound that follows.
TGI of `O=c1[nH]nc2c3n[nH]c(=O)n3c3ccccc3n12` , assay on KM20L2 colon, is > 100 µM

----------
System: HT29 colon
Assay: NCI tumour cell line growth inhibition, 48 h
Entries and their measured GI50 follow.

1) COc1ccc(/C=C2/CCOC2=O)cc1 : > 100 µM
2) CC(C)(C)c1cc2c(OP(c3ccccc3)c3ccccc3)c(c1)Cc1cc(C(C)(C)C)cc(c1OP(c1ccccc1)c1ccccc1)Cc1cc(C(C)(C)C)cc(c1OP(c1ccccc1)c1ccccc1)Cc1cc(C(C)(C)C)cc(c1OP(c1ccccc1)c1ccccc1)C2 : 47.8 µM
3) CC(=O)O[C@H]1CC[C@]2(C)[C@H]3C(=O)C=C4[C@@H]5C[C@](C)(C(=O)N6CCCNCC6)CC[C@]5(C)CC[C@@]4(C)[C@]3(C)CC[C@H]2C1(C)C : 1.5 µM
4) CNC1=C(Br)C(=O)C2=C(C1=O)C1C3=C(C(=O)C=CC3=O)C2c2ccccc21 (configuration not stated) : 2.72 µM
5) COc1ccc(-n2nc(C)c3c(Nc4ccc(NC(=O)Nc5cc(C(F)(F)F)ccc5F)cc4)ncnc32)cc1 : 2.31 µM
6) COc1cc(C(C)c2cc3c(cc2OCCOCCOc2cc4c(cc2C(C)c2cc(OC)c(OC)c(OC)c2)OCO4)OCO3)cc(OC)c1OC (configuration not stated) : > 100 µM

GI50 reported for this compound `COc1ccc(CNCCCN2C(=O)c3ccc4c5c(ccc(c35)C2=O)C(=O)N(CCCNCCCCNCCCN)C4=O)c(OC)c1OC` : 0.452 µM

----------
Test system: NCI-H460 lung
Test: NCI tumour cell line growth inhibition, 48 h
TGI: recorded values

1. COc1ccc2c3c([nH]c2c1[N+](=O)[O-])C(C)N(C(=O)/C=C/c1ccccc1)CC3 (centres undefined) : > 100 µM
2. Clc1ccc(OCc2nnc(CCCCCCCCc3nnc(COc4ccc(Cl)cc4)o3)o2)cc1 : > 100 µM
3. COc1ccc(CNCCCN2C(=O)c3ccc4c5c(ccc(c35)C2=O)C(=O)N(CCCNCCCCNCCCN)C4=O)c(OC)c1OC : 7.03 µM

TGI of `COC(=O)/C1=C/C2CC(/C=C(/c3ccccc3)C(=O)O1)C2` , assay on NCI-H460 lung, is > 100 µM

`Cc1ccc2nc(NC(=O)CSC(=S)N3CCN(Cc4ccccc4)CC3)sc2c1` tested on NCI-H460 lung gave TGI: > 100 µM

The reported NCI-H460 lung TGI of CN1NC(c2ccccc2)=C(C#N)C(=O)CC1c1ccccc1Cl (centres undefined) is > 100 µM

GET /values?item= `CCCCNC(=O)C1=C(C)NC(C)=C(C(=O)NCCCC)C1` &system= NCI-H460 lung returns TGI: > 100 µM

Simply: `CCOC(=O)c1c(N2CCOCC2)[nH]c(=O)c(C(c2ccc(N(C)C)cc2)c2c(O)c(C(=O)OCC)c(N3CCOCC3)[nH]c2=O)c1O` , NCI-H460 lung, TGI = > 100 µM

Record CC(=O)NC1C(OCc2ccccc2)OC(CO)C(O)C1OCC(=O)NC(C)C(=O)NC(CCC(=O)OCCNC(=O)c1cccc2cc3ccccc3nc12)C(N)=O (centres undefined) / NCI-H460 lung, TGI recorded as 57.8 µM
